# experimental-system: UniProtKB P31224
# Sequence (P31224 1-1049): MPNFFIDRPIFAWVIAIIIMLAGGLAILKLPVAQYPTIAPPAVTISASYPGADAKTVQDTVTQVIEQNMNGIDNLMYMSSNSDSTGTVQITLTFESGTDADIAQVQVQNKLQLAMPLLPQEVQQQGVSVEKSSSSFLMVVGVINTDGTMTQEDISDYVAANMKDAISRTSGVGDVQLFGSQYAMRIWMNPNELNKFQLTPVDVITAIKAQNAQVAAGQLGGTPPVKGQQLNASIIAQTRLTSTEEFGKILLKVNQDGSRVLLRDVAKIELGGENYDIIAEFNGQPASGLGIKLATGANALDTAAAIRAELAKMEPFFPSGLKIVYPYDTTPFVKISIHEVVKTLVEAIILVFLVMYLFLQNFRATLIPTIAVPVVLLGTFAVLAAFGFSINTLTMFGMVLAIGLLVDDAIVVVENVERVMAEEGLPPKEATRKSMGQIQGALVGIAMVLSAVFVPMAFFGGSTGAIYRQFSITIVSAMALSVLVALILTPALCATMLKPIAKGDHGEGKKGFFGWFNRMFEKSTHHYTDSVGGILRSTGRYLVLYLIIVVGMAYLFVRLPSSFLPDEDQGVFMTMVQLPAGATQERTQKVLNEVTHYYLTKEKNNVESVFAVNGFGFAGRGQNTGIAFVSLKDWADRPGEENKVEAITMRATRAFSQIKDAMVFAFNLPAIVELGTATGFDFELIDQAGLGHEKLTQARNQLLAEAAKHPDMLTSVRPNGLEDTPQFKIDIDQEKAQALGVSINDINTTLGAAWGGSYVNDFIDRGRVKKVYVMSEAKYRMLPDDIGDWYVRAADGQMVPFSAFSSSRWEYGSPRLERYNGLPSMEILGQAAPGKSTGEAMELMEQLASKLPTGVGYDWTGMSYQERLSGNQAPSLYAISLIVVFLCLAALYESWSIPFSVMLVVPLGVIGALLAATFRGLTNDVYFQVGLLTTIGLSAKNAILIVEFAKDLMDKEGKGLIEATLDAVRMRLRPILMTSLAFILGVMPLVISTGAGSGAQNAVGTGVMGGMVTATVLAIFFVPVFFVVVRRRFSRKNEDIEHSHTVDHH
# assay-summary: label-free microscale thermophoresis
# Assay type: binding
experimental-endpoint: Kd
Answer by giving the amount and then stating its unit.

Reported Kd, molecule CNC(=O)c1ccccc1Nc1nc(Nc2ccc3c(c2OC)CCC[C@H](N2CCN(CCO)CC2)C3)ncc1Cl : ____
198 µM
